experimentalTarget: PTHR1 receptor
Sequence (P25961 whole entry): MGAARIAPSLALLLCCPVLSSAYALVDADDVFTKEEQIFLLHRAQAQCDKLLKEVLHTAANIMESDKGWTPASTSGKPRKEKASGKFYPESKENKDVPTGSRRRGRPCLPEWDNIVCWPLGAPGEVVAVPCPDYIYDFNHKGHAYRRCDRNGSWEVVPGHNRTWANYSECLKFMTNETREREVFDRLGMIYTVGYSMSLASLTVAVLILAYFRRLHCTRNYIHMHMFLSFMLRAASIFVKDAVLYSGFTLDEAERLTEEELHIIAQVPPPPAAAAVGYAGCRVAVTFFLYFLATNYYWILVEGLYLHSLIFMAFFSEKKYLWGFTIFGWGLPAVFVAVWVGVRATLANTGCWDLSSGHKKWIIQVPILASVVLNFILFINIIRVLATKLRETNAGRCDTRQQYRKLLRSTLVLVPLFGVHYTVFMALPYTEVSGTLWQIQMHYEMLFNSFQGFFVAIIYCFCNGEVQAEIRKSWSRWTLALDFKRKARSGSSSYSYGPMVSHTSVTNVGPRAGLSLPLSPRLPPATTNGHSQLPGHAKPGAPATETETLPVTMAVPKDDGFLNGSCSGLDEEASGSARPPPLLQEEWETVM
* marks the point of attachment. Palmitoyl = CCCCCCCCCCCCCCCC(=O)*
assayEndpoint: Inhibition of Maximal Response
Format: numeric value only, no unit, no commentary.

Query :: Sample Palmitoyl-RRLHSTRNYIHMHL-NH2 (SMILES CCCCCCCCCCCCCCCC(=O)N[C@@H](CCCNC(=N)N)C(=O)N[C@@H](CCCNC(=N)N)C(=O)N[C@@H](CC(C)C)C(=O)N[C@@H](Cc1c[nH]cn1)C(=O)N[C@@H](CO)C(=O)N[C@H](C(=O)N[C@@H](CCCNC(=N)N)C(=O)N[C@@H](CC(N)=O)C(=O)N[C@@H](Cc1ccc(O)cc1)C(=O)N[C@H](C(=O)N[C@@H](Cc1c[nH]cn1)C(=O)N[C@@H](CCSC)C(=O)N[C@@H](Cc1c[nH]cn1)C(=O)N[C@@H](CC(C)C)C(N)=O)[C@@H](C)CC)[C@@H](C)O) [Compound 16] — what was its Inhibition of Maximal Response?
Result :: 0.0965
